target: Sodium-dependent serotonin transporter (Homo sapiens) (UniProt P31645); test: Inhibition of SERT at 1 uM by radioligand displacement assay
Sequence (P31645 whole entry, looked up): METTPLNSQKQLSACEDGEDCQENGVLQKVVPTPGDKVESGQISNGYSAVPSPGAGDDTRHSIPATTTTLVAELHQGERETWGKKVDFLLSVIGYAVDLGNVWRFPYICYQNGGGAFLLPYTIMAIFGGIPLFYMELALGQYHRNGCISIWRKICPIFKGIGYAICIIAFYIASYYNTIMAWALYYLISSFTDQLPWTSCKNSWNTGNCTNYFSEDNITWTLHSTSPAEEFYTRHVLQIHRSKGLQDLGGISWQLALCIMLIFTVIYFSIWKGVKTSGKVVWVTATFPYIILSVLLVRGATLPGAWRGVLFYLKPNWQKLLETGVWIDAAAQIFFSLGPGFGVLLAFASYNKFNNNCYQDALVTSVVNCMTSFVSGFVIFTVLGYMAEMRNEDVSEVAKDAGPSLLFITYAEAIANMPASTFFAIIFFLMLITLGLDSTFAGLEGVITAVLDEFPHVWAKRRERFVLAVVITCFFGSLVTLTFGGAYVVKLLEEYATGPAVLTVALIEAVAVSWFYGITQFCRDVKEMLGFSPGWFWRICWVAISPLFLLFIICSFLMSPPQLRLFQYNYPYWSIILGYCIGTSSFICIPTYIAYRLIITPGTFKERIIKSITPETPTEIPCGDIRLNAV
// inhibition lookup, one value per entry
Unit % implied. Number only.

Look over these answered cases.
CN1CCN(Cc2cccc3c2c(Cl)cn3S(=O)(=O)c2cccc(Cl)c2)CC1 | 1.51
CN1CCN(Cc2cccc3c2c(Br)cn3S(=O)(=O)c2ccccc2)CC1 | 5.27
CN1CCN(Cc2cccc3c2ccn3S(=O)(=O)c2ccccc2Br)CC1 | 4.62
O=S(=O)(c1ccccc1Br)n1ccc2c(CN3CCNCC3)cccc21 | 8.47

Note: attention shifts to another entry.
Return value of inhibition for input CN1CCN(Cc2cccc3c2ccn3S(=O)(=O)c2ccccc2)CC1 , no commentary.
2.85

###

target: Sodium-dependent noradrenaline transporter (Homo sapiens); experiment: Inhibition of NET at 1 uM by radioligand displacement assay
YES means recorded inhibition is 10% or above; NO means it is below 10%.

Known results for compounds:
O=S(=O)(c1ccccc1Br)n1ccc2c(CN3CCNCC3)cccc21 | NO
CN1CCN(Cc2cccc3c2c(Br)cn3S(=O)(=O)c2ccccc2)CC1 | NO
CN1CCN(Cc2cccc3c2ccn3S(=O)(=O)c2ccccc2Br)CC1 | YES

Here's the next entry for you.
Hello, I need to know if CN1CCN(Cc2cccc3c2c(Cl)cn3S(=O)(=O)c2cccc(Cl)c2)CC1 has measured inhibition not below 10%. Thanks!
YES

###

target: 5-hydroxytryptamine receptor 6 (Homo sapiens, UniProt P50406)
Sequence (P50406 whole entry): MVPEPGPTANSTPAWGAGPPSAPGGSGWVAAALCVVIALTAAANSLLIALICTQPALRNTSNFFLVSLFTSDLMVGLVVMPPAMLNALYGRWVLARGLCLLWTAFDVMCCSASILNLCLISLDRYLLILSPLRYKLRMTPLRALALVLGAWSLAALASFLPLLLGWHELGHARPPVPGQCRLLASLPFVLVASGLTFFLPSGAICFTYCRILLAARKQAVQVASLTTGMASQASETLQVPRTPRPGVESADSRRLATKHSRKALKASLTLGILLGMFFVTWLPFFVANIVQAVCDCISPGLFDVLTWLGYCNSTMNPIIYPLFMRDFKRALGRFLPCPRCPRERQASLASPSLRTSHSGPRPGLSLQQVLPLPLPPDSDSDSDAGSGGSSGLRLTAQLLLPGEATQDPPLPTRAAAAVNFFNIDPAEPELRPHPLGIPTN
outcomeMeasure: Ki (nM)
Note: unit nM is implicit; provide only the numeric part.

Retrieve Ki measured for O=S(=O)(c1ccccc1Br)n1ccc2c(CN3CCNCC3)cccc21 and print it.
2.82

###

biological target: 5-hydroxytryptamine receptor 3A (Homo sapiens) (UniProt P46098); assay: Inhibition of 5HT3 receptor at 1 uM by radioligand displacement assay
Sequence (P46098 whole entry): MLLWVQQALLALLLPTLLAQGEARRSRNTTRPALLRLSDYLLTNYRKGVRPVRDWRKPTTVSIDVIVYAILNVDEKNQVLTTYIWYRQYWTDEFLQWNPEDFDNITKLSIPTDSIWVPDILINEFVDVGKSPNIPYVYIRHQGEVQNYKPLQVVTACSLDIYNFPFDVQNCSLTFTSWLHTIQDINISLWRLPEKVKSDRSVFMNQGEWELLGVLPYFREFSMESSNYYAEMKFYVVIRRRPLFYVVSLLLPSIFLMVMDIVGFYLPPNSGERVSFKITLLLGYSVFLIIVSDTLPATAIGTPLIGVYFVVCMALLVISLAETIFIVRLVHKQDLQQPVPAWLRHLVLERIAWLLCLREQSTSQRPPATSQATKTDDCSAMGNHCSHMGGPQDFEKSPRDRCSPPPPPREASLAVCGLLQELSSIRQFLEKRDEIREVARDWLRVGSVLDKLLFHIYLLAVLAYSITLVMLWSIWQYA
outcomeMeasure: inhibition (%)
Write the answer as a number in %, unit excluded.

CN1CCN(Cc2cccc3c2ccn3S(=O)(=O)c2ccccc2)CC1 | 6.73
CN1CCN(Cc2cccc3c2c(Br)cn3S(=O)(=O)c2ccccc2)CC1 | 8.93
CN1CCN(Cc2cccc3c2ccn3S(=O)(=O)c2ccccc2Br)CC1 | 18.8
O=S(=O)(c1ccccc1Br)n1ccc2c(CN3CCNCC3)cccc21 | 18

// switching to the query compound
State the measured inhibition (5-hydroxytryptamine receptor 3A (Homo sapiens) (UniProt P46098)) of CN1CCN(Cc2cccc3c2c(Cl)cn3S(=O)(=O)c2cccc(Cl)c2)CC1
19.9

###

Reported metabolised at 0.5 h, 2.5 µM is given for each of the following molecules.
assay: Drug metabolism in human liver microsomes at 2.5 uM after 0.5 hrs; type: ADME, Microsome; conditions: read-out: Drug metabolism
Your answer is read as %, so omit the unit and give the number.

CN1CCN(Cc2cccc3c2ccn3S(=O)(=O)c2ccccc2Br)CC1 | 90

Please give measured metabolised at 0.5 h, 2.5 µM of the following entry: CN1CCN(Cc2cccc3c2ccn3S(=O)(=O)c2ccccc2)CC1
47

###

biological target: Cytochrome P450 3A4 (Homo sapiens)
Sequence (P08684 whole entry): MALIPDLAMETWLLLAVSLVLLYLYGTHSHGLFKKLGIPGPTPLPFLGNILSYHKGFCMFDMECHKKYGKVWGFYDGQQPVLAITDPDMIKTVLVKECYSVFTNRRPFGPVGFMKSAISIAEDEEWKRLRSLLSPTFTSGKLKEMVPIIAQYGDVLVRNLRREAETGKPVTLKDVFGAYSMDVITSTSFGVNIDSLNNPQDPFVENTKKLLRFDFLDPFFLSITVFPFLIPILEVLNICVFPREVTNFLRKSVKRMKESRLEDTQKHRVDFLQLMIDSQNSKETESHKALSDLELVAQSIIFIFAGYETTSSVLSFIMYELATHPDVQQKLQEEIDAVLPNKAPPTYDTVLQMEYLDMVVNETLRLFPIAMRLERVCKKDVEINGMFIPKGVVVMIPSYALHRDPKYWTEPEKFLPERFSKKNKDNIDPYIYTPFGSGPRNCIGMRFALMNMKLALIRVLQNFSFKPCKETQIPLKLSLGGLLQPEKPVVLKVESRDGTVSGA
outcomeMeasure: IC50 (µM)
Please reply with the bare figure in µM and do not write the unit itself.

Give IC50 for the following compound: CN1CCN(Cc2cccc3c2ccn3S(=O)(=O)c2ccccc2)CC1
30.5

###

target: hERG (KCNH2) (Homo sapiens); test: Inhibition of human ERG at 1 uM by radioligand displacement assay
Sequence (Q12809 whole entry): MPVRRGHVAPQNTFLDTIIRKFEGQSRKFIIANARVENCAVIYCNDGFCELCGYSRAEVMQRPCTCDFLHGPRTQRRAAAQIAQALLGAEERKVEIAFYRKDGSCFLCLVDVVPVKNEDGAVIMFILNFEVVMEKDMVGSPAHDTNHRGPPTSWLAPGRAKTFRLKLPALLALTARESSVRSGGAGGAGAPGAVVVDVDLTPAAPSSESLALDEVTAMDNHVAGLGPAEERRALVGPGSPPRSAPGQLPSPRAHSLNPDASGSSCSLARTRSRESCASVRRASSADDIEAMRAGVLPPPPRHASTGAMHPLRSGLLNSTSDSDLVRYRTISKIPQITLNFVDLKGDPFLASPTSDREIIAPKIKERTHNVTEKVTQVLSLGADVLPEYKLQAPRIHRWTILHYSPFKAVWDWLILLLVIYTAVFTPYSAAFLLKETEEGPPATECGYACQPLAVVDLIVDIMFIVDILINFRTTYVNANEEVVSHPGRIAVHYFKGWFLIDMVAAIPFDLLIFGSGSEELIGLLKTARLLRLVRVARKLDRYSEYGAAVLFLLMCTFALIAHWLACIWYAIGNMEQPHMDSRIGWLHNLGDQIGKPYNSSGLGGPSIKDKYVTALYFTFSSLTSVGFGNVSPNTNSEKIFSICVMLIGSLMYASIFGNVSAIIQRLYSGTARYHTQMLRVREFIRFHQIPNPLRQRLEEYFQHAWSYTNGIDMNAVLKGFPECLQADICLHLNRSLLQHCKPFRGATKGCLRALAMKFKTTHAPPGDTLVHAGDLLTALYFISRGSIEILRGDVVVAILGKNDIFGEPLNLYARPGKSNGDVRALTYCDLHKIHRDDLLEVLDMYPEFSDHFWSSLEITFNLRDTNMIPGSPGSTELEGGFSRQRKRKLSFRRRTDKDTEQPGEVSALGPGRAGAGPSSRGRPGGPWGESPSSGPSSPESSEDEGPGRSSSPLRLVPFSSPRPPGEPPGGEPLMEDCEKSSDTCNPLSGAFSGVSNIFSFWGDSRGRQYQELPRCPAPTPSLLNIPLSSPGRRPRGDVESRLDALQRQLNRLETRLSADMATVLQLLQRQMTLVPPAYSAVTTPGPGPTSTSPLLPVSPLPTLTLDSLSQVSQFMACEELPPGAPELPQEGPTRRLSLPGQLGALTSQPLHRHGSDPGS
Recorded measurements of inhibition at 1 µM, one per entry
Number in %, nothing else.

Please review the entries below; each comes with its answer.
CN1CCN(Cc2cccc3c2ccn3S(=O)(=O)c2ccccc2)CC1 | 21.1
O=S(=O)(c1ccccc1Br)n1ccc2c(CN3CCNCC3)cccc21 | 24.5
CN1CCN(Cc2cccc3c2ccn3S(=O)(=O)c2ccccc2Br)CC1 | 15.8

Please report the measured inhibition at 1 µM for CN1CCN(Cc2cccc3c2c(Cl)cn3S(=O)(=O)c2cccc(Cl)c2)CC1
20.2

Output measured inhibition at 1 µM for this item: CN1CCN(Cc2cccc3c2c(Br)cn3S(=O)(=O)c2ccccc2)CC1
23
